Hey, just so you know, these numbers are from patent US20050119289A1.

target: rA2A adenosine receptor (Rattus norvegicus, UniProt P30543)
Sequence (P30543 whole entry): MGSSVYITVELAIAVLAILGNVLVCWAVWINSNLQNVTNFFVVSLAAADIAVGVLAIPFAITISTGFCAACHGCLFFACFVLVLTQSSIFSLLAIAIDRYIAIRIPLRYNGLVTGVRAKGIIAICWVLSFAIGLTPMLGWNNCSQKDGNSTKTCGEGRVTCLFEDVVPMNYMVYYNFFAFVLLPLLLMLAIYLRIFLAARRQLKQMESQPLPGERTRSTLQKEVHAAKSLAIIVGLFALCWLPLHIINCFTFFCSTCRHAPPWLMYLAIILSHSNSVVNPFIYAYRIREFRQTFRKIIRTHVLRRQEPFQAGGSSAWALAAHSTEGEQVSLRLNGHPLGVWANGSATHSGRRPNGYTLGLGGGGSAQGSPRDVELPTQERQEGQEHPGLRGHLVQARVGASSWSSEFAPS
attribute_measured: Ki

QUERY: Which Ki is reported with rA2A adenosine receptor (Rattus norvegicus, UniProt P30543) for this entry: `CN(C)c1ccc(NC(=O)Nc2nc3nn(C)cc3c3nc(-c4ccco4)nn23)cc1` ?
RESULT: > 10 µM

----------
The compounds listed here are annotated with their IC50.
test system: human colon carcinoma HT29 cell line; experiment: MTT growth inhibitory assay, HT29; format: cell-based; conditions: Homo sapiens, HT-29, HT29 cells; with IL-11 0.5 μg/ml; read-out: IC50 of anti-neoplastic agent used jointly with A3 antagonist
Counter-ions that a name gives are not always drawn.
Write it as a number; the unit ng/mL goes unstated.

// worked examples, IC50 included
CC(=O)O[C@H]1C(=O)[C@@]2(C)[C@H]([C@H](OC(=O)c3ccccc3)[C@]3(O)C[C@H](OC(=O)[C@H](O)[C@@H](NC(=O)c4ccccc4)c4ccccc4)C(C)=C1C3(C)C)[C@]1(OC(C)=O)CO[C@@H]1C[C@@H]2O ... 0.99
COc1cccc2c1C(=O)c1c(O)c3c(c(O)c1C2=O)C[C@@](O)(C(=O)CO)C[C@@H]3O[C@H]1C[C@H](N)[C@H](O)[C@H](C)O1 ... 380
CCc1c2c(nc3ccc(OC(=O)N4CCC(N5CCCCC5)CC4)cc13)-c1cc3c(c(=O)n1C2)COC(=O)[C@]3(O)CC [irinotecan HCL] ... 850

QUERY: Sample `CC(=O)O[C@@]12CO[C@@H]1C[C@H](O)[C@@]1(C)C(=O)[C@H](O)C3=C(C)[C@@H](OC(=O)[C@H](O)[C@@H](NC(=O)OC(C)(C)C)c4ccccc4)C[C@@](O)([C@@H](OC(=O)c4ccccc4)[C@H]21)C3(C)C` — what was its IC50?
RESULT: 0.0028

----------
test system: human lung carcinoma SKMES cell line; assay: MTT growth inhibitory assay, SKMES; format: cell-based; conditions: SKMES cells, with MRE3008F20 1 μg/ml, read-out: IC50 of anti-neoplastic agent used jointly with A3 antagonist
Structures can show the parent of a compound that is named as a salt.
The compounds listed here are annotated with their IC50.
Write it as a number; the unit ng/mL goes unstated.

CC[C@]1(O)C[C@@H]2CN(CCc3c([nH]c4ccccc34)[C@@](C(=O)OC)(c3cc4c(cc3OC)N(C)[C@H]3[C@@](O)(C(=O)OC)[C@H](OC(C)=O)[C@]5(CC)C=CCN6CC[C@]43[C@@H]65)C2)C1 [vinblastine] ... 1.3
CCc1c2c(nc3ccc(OC(=O)N4CCC(N5CCCCC5)CC4)cc13)-c1cc3c(c(=O)n1C2)COC(=O)[C@]3(O)CC [irinotecan HCL] ... 570
CC(=O)O[C@@]12CO[C@@H]1C[C@H](O)[C@@]1(C)C(=O)[C@H](O)C3=C(C)[C@@H](OC(=O)[C@H](O)[C@@H](NC(=O)OC(C)(C)C)c4ccccc4)C[C@@](O)([C@@H](OC(=O)c4ccccc4)[C@H]21)C3(C)C [docetaxel] ... 0.13

Let's switch to this compound now.
QUERY: Which IC50 is reported with human lung carcinoma SKMES cell line for this entry: CC(=O)O[C@H]1C(=O)[C@@]2(C)[C@H]([C@H](OC(=O)c3ccccc3)[C@]3(O)C[C@H](OC(=O)[C@H](O)[C@@H](NC(=O)c4ccccc4)c4ccccc4)C(C)=C1C3(C)C)[C@]1(OC(C)=O)CO[C@@H]1C[C@@H]2O [paclitaxel] ?
RESULT: 0.8

----------
Molecular target: UniProtKB P25099
Sequence (P25099 1-326): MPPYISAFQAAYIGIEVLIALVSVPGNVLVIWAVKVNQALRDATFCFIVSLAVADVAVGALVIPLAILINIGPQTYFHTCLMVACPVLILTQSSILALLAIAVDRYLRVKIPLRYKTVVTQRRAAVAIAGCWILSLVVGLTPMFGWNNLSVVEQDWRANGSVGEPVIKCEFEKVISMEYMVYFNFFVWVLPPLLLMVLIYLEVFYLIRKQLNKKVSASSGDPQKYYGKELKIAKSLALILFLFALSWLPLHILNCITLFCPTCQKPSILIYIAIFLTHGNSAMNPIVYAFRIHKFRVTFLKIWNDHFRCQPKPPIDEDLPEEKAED
attribute_measured: Ki

QUERY: Sample CN(C)c1ccc(NC(=O)Nc2nc3nn(C)cc3c3nc(-c4ccco4)nn23)cc1 [IL-11] — what was its Ki?
RESULT: > 10 µM
